# TARGET ENTITY: CDK2/Cyclin E (Homo sapiens, UniProt P24941)
# PROTOCOL NOTES: CDK2/Cyclin E biochemical phosphorylation assay (Caliper mobility shift)
# TEST PARAMETERS: apparent IC50; 1.0 mM ATP or ATP Km; 1.25 nM enzyme; 25° C.; read-out: CDK2/cyclin E1 IC50
This listing pairs compounds with measured IC50.

Worked set:
Prompt line: Give the measured IC50 for FC(F)Oc1cc(Nc2cnc3cnn([C@@H](c4cccnc4)C4CC4)c3n2)n[nH]1 (single isomer, unassigned) [Example 147]
Response line: ≤ 10 nM

Prompt line: Provide IC50 value for the following compound: CC(C)(C)n1ncc2ncc(Nc3cc(OC(F)F)[nH]n3)nc21 [Example 79]
Response line: 20 to 30 nM

Prompt line: Please indicate IC50 recorded for FC(F)Oc1cc(Nc2cnc3cnn(CC4CC5CCC(C4)O5)c3n2)n[nH]1 (stereo not drawn) [Example 99]
Response line: ≤ 10 nM

Prompt line: Please report IC50 for the following compound: CC1(C)C[C@H](Cn2ncc3ncc(Nc4cc(OC(F)F)[nH]n4)nc32)C(=O)N1 (single isomer, unassigned) [Example 184]
Response line: 30 to 100 nM

Prompt line: Give the value of IC50 reported for the following: FC(F)Oc1cc(Nc2cnc3cnn(CC45COCC4C5)c3n2)n[nH]1 (stereo not drawn) [Example 221]
Response line: 30 to 100 nM

---
Prompt line: # return recorded IC50 for entry C[C@@H](c1cc(Cl)ccn1)n1ncc2ncc(Nc3cc(OC(F)F)[nH]n3)nc21 (single isomer, unassigned) [Example 189]
Response line: > 100 nM

Prompt line: Return the recorded IC50 value; entry: COc1cc(Nc2cnc3cnn(CC4CCOCC4)c3n2)n[nH]1 [Example 92]
Response line: ≤ 10 nM

Prompt line: Tell us which IC50 value is on record for OC[C@@H](C1CCOCC1)n1ncc2ncc(Nc3cc(OC(F)F)[nH]n3)nc21 [Example 30]
Response line: 20 to 30 nM

Prompt line: Name the recorded IC50 of the compound listed here: [2H]C([2H])(C1CCOCC1)n1ncc2ncc(Nc3cc(OC(F)F)[nH]n3)nc21 [Example 226]
Response line: ≤ 10 nM

###

# TARGET ENTITY: CDK2/Cyclin E (Homo sapiens, UniProt P24941)
# PROTOCOL NOTES: CDK2/Cyclin E biochemical phosphorylation assay (Caliper mobility shift)
# TEST PARAMETERS: additional compounds not disclosed herein, assays of Biological Example 1; read-out: inhibitory activity for CDK2/cyclin E1
pIC50: −log10 of the molar value.
MEASUREMENT TYPE: pIC50

Prompt line: Entry CC(c1cccn(C)c1=O)n1ncc2ncc(Nc3cc(OC(F)F)[nH]n3)nc21 (stereo not shown) needs its pIC50 filled in; supply it.
Response line: < 5.00

###

# TARGET ENTITY: CDK1/Cyclin B1, GST-tag (Homo sapiens, UniProt P06493)
# Construct: GST
# Sequence (P06493 whole entry): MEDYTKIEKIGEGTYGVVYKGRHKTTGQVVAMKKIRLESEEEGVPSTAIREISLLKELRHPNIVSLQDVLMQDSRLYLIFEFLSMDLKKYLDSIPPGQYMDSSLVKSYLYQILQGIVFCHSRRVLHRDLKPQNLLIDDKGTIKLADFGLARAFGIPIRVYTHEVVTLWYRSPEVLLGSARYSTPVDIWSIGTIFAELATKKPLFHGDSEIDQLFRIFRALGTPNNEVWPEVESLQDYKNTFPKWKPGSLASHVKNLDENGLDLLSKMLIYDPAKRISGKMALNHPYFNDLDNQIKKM
# Sequence (P14635 whole entry partner): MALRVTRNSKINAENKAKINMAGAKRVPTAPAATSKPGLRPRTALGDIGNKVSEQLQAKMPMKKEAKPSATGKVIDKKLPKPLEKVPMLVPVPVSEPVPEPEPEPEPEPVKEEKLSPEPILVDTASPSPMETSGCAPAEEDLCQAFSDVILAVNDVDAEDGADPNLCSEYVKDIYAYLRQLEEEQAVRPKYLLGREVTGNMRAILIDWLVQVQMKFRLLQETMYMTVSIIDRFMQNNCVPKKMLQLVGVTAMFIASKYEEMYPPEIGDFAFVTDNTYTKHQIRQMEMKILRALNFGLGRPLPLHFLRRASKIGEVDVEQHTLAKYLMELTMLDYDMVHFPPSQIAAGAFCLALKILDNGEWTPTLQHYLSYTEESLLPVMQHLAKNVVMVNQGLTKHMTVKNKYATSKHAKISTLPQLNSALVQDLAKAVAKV
# PROTOCOL NOTES: CDK1/Cyclin B1 biochemical phosphorylation assay (Caliper mobility shift)
# TEST PARAMETERS: apparent IC50; 1.0 mM ATP or ATP Km; 1.5 nM enzyme; 25° C.
# Source text: […]
MEASUREMENT TYPE: IC50

Solved entries:
Prompt line: Given the compound Cc1ccncc1Cn1ncc2ncc(Nc3cc(OC(F)F)[nH]n3)nc21 , write its reported IC50.
Response line: ≥ 500 nM

Prompt line: Indicate its recorded IC50; the compound in question is Cc1nn(CC2CCOCC2)c2nc(Nc3cc(OC(F)F)[nH]n3)cnc12
Response line: 100 to 500 nM

Prompt line: // fetch IC50 given entry COc1cc(Nc2cnc3cnn([C@@H](CF)C4CCOCC4)c3n2)n[nH]1 (single isomer, unassigned) [Example 194]
Response line: 100 to 500 nM

Others:
Prompt line: Name the recorded IC50 of the item COc1cc(Nc2cnc3cnn(C[C@H]4CCOC4)c3n2)n[nH]1 in your answer.
Response line: 100 to 500 nM

Prompt line: Give reported IC50 value for FC(F)Oc1cc(Nc2cnc3cnn([C@H](C4CCOCC4)C4CC4)c3n2)n[nH]1 (single isomer, unassigned) [Example 158]
Response line: ≥ 500 nM

Prompt line: Output IC50 of O[C@H]1CC[C@@H](Cn2ncc3ncc(Nc4cc(OC(F)F)[nH]n4)nc32)CC1 (single isomer, unassigned) [Example 172]
Response line: ≥ 500 nM

Prompt line: Give the measured IC50 for CC[C@@H](c1cccnc1)n1ncc2ncc(Nc3cc(OC(F)F)[nH]n3)nc21
Response line: ≥ 500 nM

Prompt line: Query IC50 for Fc1nn(CC2CCOCC2)c2nc(Nc3cc(OC(F)F)[nH]n3)cnc12
Response line: 100 to 500 nM

Prompt line: Note IC50 for the compound shown: C[C@H](c1cccnc1)n1ncc2ncc(Nc3cc(OC(F)F)[nH]n3)nc21
Response line: ≥ 500 nM

Prompt line: State, in one line, measured IC50 of COc1cc(Nc2cnc3cnn(CC45CCC(CC4)OC5)c3n2)n[nH]1
Response line: ≥ 500 nM

Prompt line: Look up and state reported IC50 for FC(F)Oc1cc(Nc2cnc3c(Cl)nn(CC4CCOCC4)c3n2)n[nH]1
Response line: ≥ 500 nM

Prompt line: Please indicate IC50 recorded for Fc1ccc(Cn2ncc3ncc(Nc4cc(OC(F)F)[nH]n4)nc32)cn1
Response line: ≥ 500 nM

Prompt line: // Input: COc1cc(Nc2cnc3cnn(Cc4cccnc4F)c3n2)n[nH]1 . Output its IC50 only.
Response line: 100 to 500 nM

Prompt line: Provide measured IC50 value, entry: C[C@@H]([C@@H]1COCCO1)n1ncc2ncc(Nc3cc(OC(F)F)[nH]n3)nc21 (single isomer, unassigned) [Example 211]
Response line: ≥ 500 nM

Prompt line: Specify measured IC50 for C[C@@H]([C@H]1CCCOC1)n1ncc2ncc(Nc3cc(OC(F)F)[nH]n3)nc21 (single isomer, unassigned) [Example 216] .
Response line: ≥ 500 nM

Prompt line: Give IC50 for C[C@@H](C1CCOCC1)n1nc(F)c2ncc(Nc3cc(OC(F)F)[nH]n3)nc21
Response line: 100 to 500 nM

Prompt line: Return reported IC50. Input compound: COc1cc(Nc2cnc3cnn(C[C@H]4C[C@@H]4C#N)c3n2)n[nH]1 (single isomer, unassigned) [Example 196]
Response line: ≥ 500 nM

Prompt line: Specify IC50 for FC(F)Oc1cc(Nc2cnc3cnn(Cc4cccc5[nH]ncc45)c3n2)n[nH]1 and stop.
Response line: ≥ 500 nM

Prompt line: For the compound C[C@@H](c1cncc(F)c1)n1ncc2ncc(Nc3cc(OC(F)F)[nH]n3)nc21 (single isomer, unassigned) [Example 154] , give its reported IC50.
Response line: ≥ 500 nM

Prompt line: Please indicate IC50 recorded for N#Cc1nn(CC2CCOCC2)c2nc(Nc3cc(OC(F)F)[nH]n3)cnc12
Response line: ≥ 500 nM

Prompt line: Please report IC50 for the following compound: N#C[C@H]1C[C@H](Cn2ncc3ncc(Nc4cc(OC(F)F)[nH]n4)nc32)C1 (single isomer, unassigned) [Example 190]
Response line: ≥ 500 nM

###

Parameter: IC50. Scope: all listed entries.
# TARGET ENTITY: CDK1/Cyclin B1, GST-tag (Homo sapiens, UniProt P06493)
# Construct: GST
# PROTOCOL NOTES: CDK1/Cyclin B1 biochemical phosphorylation assay (Caliper mobility shift)
# TEST PARAMETERS: apparent IC50; 1.0 mM ATP or ATP Km; 1.5 nM enzyme; 25° C.

Prompt line: # return recorded IC50 for input CCOc1cc(Nc2cnc3cnn(CC4CCOCC4)c3n2)n[nH]1 [Example 38]
Response line: 100 to 500 nM

Prompt line: Supply IC50 value. Item: N#C[C@@H]1C[C@H]1Cn1ncc2ncc(Nc3cc(OC(F)F)[nH]n3)nc21 (single isomer, unassigned) [Example 26]
Response line: ≥ 500 nM

Prompt line: Using the record for C[C@@H](c1cccnc1)n1ncc2ncc(Nc3cc(OC(F)F)[nH]n3)nc21 [Example 1] , state its measured IC50.
Response line: 100 to 500 nM

More entries:
Prompt line: Item C[C@@H]([C@@H]1CCOC1)n1ncc2ncc(Nc3cc(OC(F)F)[nH]n3)nc21 (single isomer, unassigned) [Example 9] : provide IC50
Response line: ≥ 500 nM

Prompt line: Answer with reported IC50 of COc1cc(Nc2cnc3cnn([C@@H](C(F)F)C4CCOCC4)c3n2)n[nH]1 (single isomer, unassigned) [Example 193]
Response line: ≥ 500 nM

Prompt line: Look up and report measured IC50 for this entry: C[C@@H](C1CCOCC1)n1nc(C#N)c2ncc(Nc3cc(OC(F)F)[nH]n3)nc21 [Example 64]
Response line: ≥ 500 nM

Prompt line: Please give the documented IC50 of FC(F)Oc1cc(Nc2cnc3cnn([C@H](c4ccccn4)C(F)F)c3n2)n[nH]1 (single isomer, unassigned) [Example 149]
Response line: ≥ 500 nM

Measured values drawn from patent US11970498B2 for this set.
